# Test system: A549 NSCLC
# procedure_text: NCI tumour cell line growth inhibition, 48 h
readout_name: GI50

Consider the worked cases shown below.
| compound | GI50 |
| --- | --- |
| Cc1ccc(/C(=N\N=C(N)N)c2ccccc2)cc1 | 0.433 µM |
| C/C(=N\O)c1cccc(Nc2cc(-n3ccnn3)c3ccccc3n2)c1 | 16.9 µM |
| O=C1C=C(NCCNC(=S)Nc2ccccc2)c2nccc3c2c1nc1ccccc13 | 44.7 µM |
| COc1cc(/C=C2\CCC/C(=C\c3cc(OC)c(O)c(OC)c3)C2=O)cc(OC)c1O | 3.14 µM |
| COc1ccc(C2SCC(=O)N2NC(=O)C(O)c2ccccc2)cc1OC (stereo unspecified) | > 100 µM |

Next compound, GI50 to be filled in.
Entry O=C(Nc1ccc(F)cc1)c1ccc(NC2=C(Cl)C(=O)N(Cc3ccccc3)C2=O)cc1 has what GI50? 8.68 µM
